Data origin: patent US20240010640A1

Attribute: Emin (% ACh maximum at 30 μM)
- Measured Target: Human M4 (Homo sapiens)
- Construct: Human or rat M4 cDNA, along with the chimeric G protein Gqi5, were transfected into Chinese hamster ovary (CHO-K1) cells; expressed in transfected cells; host or cells: CHO-K1 (Chinese hamster ovary, ATCC), stably expressing M4 and Gqi5
- Sequence (P08173 1-479): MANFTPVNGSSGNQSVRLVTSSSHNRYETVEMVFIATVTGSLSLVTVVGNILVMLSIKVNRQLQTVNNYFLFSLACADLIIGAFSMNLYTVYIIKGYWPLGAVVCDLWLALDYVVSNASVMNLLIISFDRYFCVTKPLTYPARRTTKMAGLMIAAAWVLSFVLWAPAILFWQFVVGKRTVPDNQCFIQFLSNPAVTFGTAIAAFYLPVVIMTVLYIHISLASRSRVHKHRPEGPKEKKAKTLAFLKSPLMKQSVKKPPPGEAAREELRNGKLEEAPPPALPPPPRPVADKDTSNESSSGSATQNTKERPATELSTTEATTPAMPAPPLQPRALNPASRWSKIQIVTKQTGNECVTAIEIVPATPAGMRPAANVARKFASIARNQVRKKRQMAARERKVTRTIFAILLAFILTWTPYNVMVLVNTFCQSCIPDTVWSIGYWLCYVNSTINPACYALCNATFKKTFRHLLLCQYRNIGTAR
- Protocol Text: mAChR M4 cell-based functional assay (calcium flux, antagonist mode)
- Details: Human M4; % ACh maximum at 30 μM

Give Emin (% ACh maximum at 30 μM) (Human M4 (Homo sapiens)) of the following molecule: [2H]C([2H])(C1CCOCC1)N1C[C@H]2C[C@H](Nc3ccc(-c4cccn(C)c4=O)nn3)C[C@H]2C1
4%

Write down the reported Emin (% ACh maximum at 30 μM) of [2H]C([2H])(C1CCOCC1)N1C[C@H]2C[C@H](Nc3ccc(-c4cc(F)c(=O)n(C)c4)nn3)C[C@H]2C1 , test system: Human M4 (Homo sapiens).
4%
